PROTOCOL_SUMMARY: Radio-HPLC metabolite analysis of mouse brain homogenate and plasma after IV radiotracer
Type: in vivo, male C57 black 6 mice
SETTINGS: male, C57 black 6, mouse, brain/plasma, intravenous, 1.54 µg, mouse, 90 min; read-out: ratio (SD) of parent in the brain versus parent in plasma
READOUT: Kp at 90 min

{"MOLECULE": "CCCC[C@@H](Cc1c[nH]c2ccccc12)NC(=O)c1cnc(N2CCN([11CH3])CC2)s1 [[^11C-N-CH3]UCB2713]", "READOUT": "Kp at 90 min", "TEST_RESULT": 0.79}

====

PROTOCOL_SUMMARY: Plasma pharmacokinetics after single oral dose in TM0017
Assay type: in vivo
SETTINGS: male, human, TM0017, single oral 360 mg, read-out: apparent terminal elimination half-life (GeoMean) (converted)

{"COMPOUND_SMILES": "CCCC[C@H](Cc1c[nH]c2ccccc12)NC(=O)c1cnc(N2CCN(C)CC2)s1", "half-life / h": 11.4}
